- test-details: Lipophilicity, log P of the compound
- Assay type: physicochemical
- reported-conditions: octanol/water
Binary classification by logP, with 4 as an inclusive lower bound for fulfilled; all other cases are not fulfilled.

Take a look at these entries with their results.
O=C1/C(=C/c2ccc3oc4ccccc4c3c2)COc2c1ccc1ccccc21    fulfilled
COc1ccc2c(c1)C(=O)/C(=C/c1ccc3oc4ccccc4c3c1)CO2    not fulfilled
O=C1/C(=C/c2ccc3oc4ccccc4c3c2)COc2ccc(Br)cc21    fulfilled
CC(C)(C)c1ccc2c(c1)C(=O)/C(=C/c1ccc3oc4ccccc4c3c1)CO2    fulfilled

Next up:
Q. Hi, just wondering whether O=C1/C(=C/c2ccc3oc4ccccc4c3c2)COc2ccc(F)cc21 shows logP of 4 or higher.
A. not fulfilled

* * *

- test-details: Lipophilicity, log P of the compound
- Format: physicochemical
- reported-conditions: octanol/water
Mark true (1) only when logP stays strictly below 4. Values equal to the cut-off are false (0).

COc1cccc2c1OC/C(=C\c1ccc3oc4ccccc4c3c1)C2=O    true (1)

Q. logP under 4? Item: O=C1/C(=C/c2ccc3oc4ccccc4c3c2)COc2ccc3ccccc3c21
A. false (0)

Q. logP under 4? Item: O=C1/C(=C/c2ccc3oc4ccccc4c3c2)COc2ccc3oc4ccccc4c3c21
A. false (0)

Q. logP under 4? Item: O=C1/C(=C/c2ccc3oc4ccccc4c3c2)COc2ccc3[nH]c4ccccc4c3c21
A. false (0)

Q. logP under 4? Item: O=C1/C(=C/c2ccc3oc4ccccc4c3c2)COc2ccccc21
A. true (1)

Q. logP under 4? Item: Cc1ccc2c(c1)C(=O)/C(=C/c1ccc3oc4ccccc4c3c1)CO2
A. false (0)
